Tested on: HCT-116
Measurement Description: Growth inhibitory activity against human HCT116 cell line in presence of Hypoxanthine thymidine(HT)
Format: functional
Quantity Measured: GI50

Please review the following examples before continuing.
- Compound: "Nc1ncc(-c2ccc(Cl)c([N+](=O)[O-])c2)cn1"
  Assay System: "HCT-116"
  Result: "> 50 µM"
- Compound: "CN(Cc1ccccc1)c1ccc(-c2cnc(N)nc2)cc1[N+](=O)[O-]"
  Assay System: "HCT-116"
  Result: "> 50 µM"

Consider the record given below.
Read the entry CN(Cc1cnc2nc(N)nc(N)c2n1)c1ccc(C(=O)N[C@@H](CCC(=O)O)C(=O)O)cc1 [METHOTREXATE] and write its reported GI50.
> 50 µM
